Test Target: GluN1 (GluN1/GluN2B ∆ATD NMDA receptor) (Xenopus laevis, UniProt A0A1L8F5J9+A7XY94, A0A1L8F5J9:DEL23-393/A0A1L8F5J9:G610R)
Assay Text: X-ray crystal structure
Recorded Metric: Kd (µM)
All answers are understood in µM, so give the number only.

Give the reported Kd for this molecule. C[C@]12N[C@H](Cc3ccccc31)c1ccccc12
1.6

###

Test Target: GluN1 (GluN1/GluN2B NMDA receptor) (Xenopus laevis, UniProt A0A1L8F5J9+A7XY94, A0A1L8F5J9:G610R)
Assay Text: competition with 3H-MK-801, scintillation proximity assay
pKi: −log10 of the molar value.
Recorded Metric: pKi

Identify pKi associated with the compound CC12CC3CC(C)(C1)CC(N)(C3)C2 [memantine]
~3.83

###

Test Target: GluN1 (GluN1/GluN2B NMDA receptor) (Xenopus laevis, UniProt A0A1L8F5J9+A7XY94)
Recorded Metric: Kd (nM)
Answer format: numeric, nM implied, no suffix.

State Kd on GluN1 (GluN1/GluN2B NMDA receptor) (Xenopus laevis, UniProt A0A1L8F5J9+A7XY94). Entry: C[C@]12N[C@H](Cc3ccccc31)c1ccccc12
111
